System: FTC-133
Assay: cells
Format: functional, cell-based
Conditions: Homo sapiens
property_label: IC50

Record for `Cc1ccc(C(=O)Nc2ccc(CN3CCN(C)CC3)c(C(F)(F)F)c2)cc1C#Cc1cnc2cccnn12` under target or system FTC-133: IC50 reported as > 0.512 µM

Response field IC50 (FTC-133) for item `Cc1ccc(-n2nc(C(C)(C)C)cc2NC(=O)Nc2ccc(OCCN3CCOCC3)c3ccccc23)cc1` : > 10 µM

Measured IC50 (FTC-133), entry `C/C(=C\c1csc(C)n1)[C@@H]1C[C@@H]2O[C@]2(C)CCC[C@H](C)[C@H](O)[C@@H](C)C(=O)C(C)(C)[C@@H](O)CC(=O)O1` : 0.0305 µM

Hey, FTC-133 data for `O=S(=O)(O)c1ccc2cc(/N=N/c3cc(S(=O)(=O)O)c4cccnc4c3O)ccc2c1` : IC50 came out at > 16 µM

Known value: FTC-133 IC50 of the molecule `COc1ccc(-c2cc3nccn3c(Nc3ncccc3C(N)=O)n2)cc1OC` equals > 8 µM

====

Assign pIC50 to each entry below.
Test system: MV4-11;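 further: cell viability readout measuring growth inhibition of human MV-4-11 cells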
Assay: cells
Assay type: functional, cell-based, Homo sapiens, MV-4-11
Conditions: Homo sapiens, MV4-11
Description: SANGER: Inhibition of human MV-4-11 cell growth in a cell viability assay.
Scale for pIC50: -log10 of concentration given in mol/L; no unit attached.

Entry NC1(c2ccc(-c3nc4ccn5c(=O)[nH]nc5c4cc3-c3ccccc3)cc2)CCC1 [MK-2206] , pIC50 reported as 5.56

According to the records, this compound CC1=C(/C=C/C(C)=C/C=C/C(C)=C/C(=O)O)C(C)(C)CCC1 [TRETINOIN] displays pIC50 of 7.68

====

Test system: NCI-H747;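 further: growth inhibition of human NCI-H747 cells, read out by a cell viability assay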
Experiment: cells
Assay type: functional, cell-based, Homo sapiens
Conditions: Homo sapiens, NCI-H747
Description: SANGER: Inhibition of human NCI-H747 cell growth in a cell viability assay.
property_label: IC50

Lab note: `COC(=O)[C@H](CCSC)NC(=O)c1ccc(NC[C@@H](N)CS)cc1-c1ccccc1` gave IC50 of > 1020 nM

Memo: C/C(=C\c1csc(C)n1)[C@@H]1C[C@@H]2O[C@]2(C)CCC[C@H](C)[C@H](O)[C@@H](C)C(=O)C(C)(C)[C@@H](O)CC(=O)O1 [PATUPILONE] , reported IC50: 2.54 nM

IC50 for CC1(C)CCC(c2ccc(Cl)cc2)=C(CN2CCN(c3ccc(C(=O)NS(=O)(=O)c4ccc(N[C@H](CCN5CCOCC5)CSc5ccccc5)c(S(=O)(=O)C(F)(F)F)c4)cc3)CC2)C1 [NAVITOCLAX] is > 2000 nM

====

Tested on: GP5d;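 further: growth inhibition of human GP5d cells, read out with a cell viability assay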
Experiment: cells
Type: functional, cell-based
Settings: Homo sapiens
Description: SANGER: Inhibition of human GP5d cell growth in a cell viability assay.
pIC50: −log10 of the molar value.
Would you mind telling me the reported pIC50 of each entry?

# pIC50 of `NC1(c2ccc(-c3nc4ccn5c(=O)[nH]nc5c4cc3-c3ccccc3)cc2)CCC1` = < 5.40

Data point: `CO[C@@H]1[C@H](N(C)C(=O)c2ccccc2)C[C@H]2O[C@]1(C)n1c3ccccc3c3c4c(c5c6ccccc6n2c5c31)C(=O)NC4` ; pIC50 = < 6.29

Entry `Cc1ccc(-n2nc(C(C)(C)C)cc2NC(=O)Nc2ccc(OCCN3CCOCC3)c3ccccc23)cc1` , pIC50 reported as < 5.00

Notebook: `O=S(=O)(O)c1ccc2cc(/N=N/c3cc(S(=O)(=O)O)c4cccnc4c3O)ccc2c1` , pIC50 read as < 4.80

pIC50 reported for this compound `CN(C)CCOc1ccc(-c2nc(-c3ccncc3)c(-c3ccc4c(c3)CC/C4=N\O)[nH]2)cc1` : < 5.30

The reported pIC50 of the compound `NC(=O)Nc1cc(-c2cccc(F)c2)sc1C(=O)N[C@H]1CCCNC1` was 6.38
